- subject-of-test: Caspase-8 (Homo sapiens, UniProt Q14790)
- Sequence (Q14790 217-374 limits assumed): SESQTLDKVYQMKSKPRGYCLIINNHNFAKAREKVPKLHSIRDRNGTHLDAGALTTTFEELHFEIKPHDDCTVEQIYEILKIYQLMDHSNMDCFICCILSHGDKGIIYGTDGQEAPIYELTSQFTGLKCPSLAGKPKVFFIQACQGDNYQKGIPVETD
- Sequence (Q14790 385-479 limits assumed): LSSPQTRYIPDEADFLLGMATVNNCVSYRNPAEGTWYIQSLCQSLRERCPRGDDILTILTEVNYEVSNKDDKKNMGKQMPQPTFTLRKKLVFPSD
Where a SMILES comes first, the peptide text is derived from it. [ ]: non-standard residue; d: D form. ξ: configuration not given here. Ile(3ξ) = CCC(C)[C@H](N)C(=O)O; Thr(3ξ) = CC(O)[C@H](N)C(=O)O
readout-type: pIC50
Numbers only, as −log10 of the molar value.

Problem: For the compound shown here, CCC(C)[C@H](NC(C)=O)C(=O)N[C@@H](CCC(=O)O)C(=O)N[C@H](C(=O)N[C@H](C=O)CC(=O)O)C(C)O (stereo partly drawn) (Ac-[Ile(3ξ)]E[Thr(3ξ)]D-aldehyde) , give the reported pIC50.
Result: 8.33
